Target: purified murine COX-2 (Mus musculus, UniProt Q05769)
Test: Inhibition of mCOX-2 dependent oxygenation of 2-AG and AA by profens in vitro
Format: biochemical
Set-up: made in house; host or cells: insect cells
Conditions: chiral profens; murine COX-2 40 nM, 3 min preincubation, 2-AG 5 μM; mean ± SD; read-out: IC50 (μM) 2-AG
IC50: recorded values

In the examples that follow, each entry is paired with its recorded IC50.
MOLECULE	ENDPOINT NAME	VALUE
CC(C(=O)O)c1cccc(C(=O)c2ccccc2)c1 (racemic) [Compound 6e, ketoprofen, reference compound]	IC50	0.3 µM
C[C@H](C(=O)O)c1cccc(C(=O)c2ccccc2)c1 [(S)-ketoprofen, reference compound]	IC50	0.2 µM
C[C@@H](C(=O)O)c1cccc(C(=O)c2ccccc2)c1 [Compound 7e, (R)-ketoprofen]	IC50	7.3 µM
C[C@H](C(=O)O)c1cccc(Oc2ccccc2)c1 [(S)-fenoprofen, reference compound]	IC50	0.9 µM

Lookup: Please tell me: IC50 of CC(C(=O)O)c1cccc(Oc2ccccc2)c1 (racemic) [Compound 6d, fenoprofen, reference compound] , system purified murine COX-2 (Mus musculus, UniProt Q05769)?
Found: 0.9 µM

---

Target: wild type mCOX-2 (Mus musculus, UniProt Q05769)
Sequence (Q05769 18-604): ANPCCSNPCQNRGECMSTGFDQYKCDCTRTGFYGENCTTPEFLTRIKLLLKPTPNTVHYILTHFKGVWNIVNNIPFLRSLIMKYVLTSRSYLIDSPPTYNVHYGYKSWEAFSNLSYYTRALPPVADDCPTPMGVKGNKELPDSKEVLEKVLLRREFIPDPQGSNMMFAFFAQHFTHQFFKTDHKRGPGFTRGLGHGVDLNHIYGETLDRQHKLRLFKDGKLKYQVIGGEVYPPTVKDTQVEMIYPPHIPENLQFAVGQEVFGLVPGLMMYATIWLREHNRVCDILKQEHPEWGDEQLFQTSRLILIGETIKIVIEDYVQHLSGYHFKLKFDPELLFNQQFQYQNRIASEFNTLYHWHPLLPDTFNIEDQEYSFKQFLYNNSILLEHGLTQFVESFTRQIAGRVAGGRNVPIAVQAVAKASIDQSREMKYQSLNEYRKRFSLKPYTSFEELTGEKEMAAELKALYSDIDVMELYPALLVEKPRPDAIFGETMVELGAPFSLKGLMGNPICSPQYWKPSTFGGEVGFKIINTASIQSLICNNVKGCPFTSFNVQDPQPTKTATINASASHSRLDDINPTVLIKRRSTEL
Assay: biochemical
Settings: 2-AG IC50, 2-AG oxygenation by COX-2
pIC50: recorded values
Recall that pIC50 is obtained by taking minus log10 of the concentration measured in molar.

In the examples that follow, each entry is paired with its recorded pIC50.
COc1ccc2c(c1)c(CC(=O)N1CCCCC1)c(C)n2C(=O)c1ccc(Cl)cc1 6.19
COc1ccc2c(c1)c(CC(N)=O)c(C)n2C(=O)c1ccc(Cl)cc1 6.23
CCN(CC)C(=O)Cc1c(C)n(C(=O)c2ccc(Cl)cc2)c2ccc(OC)cc12 6.23
COc1ccc2c(c1)c(CC(=O)N(C)CCc1ccccc1)c(C)n2C(=O)c1ccc(Cl)cc1 6.15
COc1ccc2c(c1)c(CC(=O)NCCO)c(C)n2C(=O)c1ccc(Cl)cc1 6.63

Read the next record carefully.
Lookup: I am curious: what pIC50 value has been reported for `COc1ccc2c(c1)c(CC(=O)N(C)C)c(C)n2C(=O)c1ccc(Cl)cc1` ?
Found: 6.37

Data provenance: patent US20150183737A1
